Source: ChEMBL document CHEMBL5137058

Known IC50 of a selection of compounds
systemTested: GABA-A receptor; anion channel
assayNotes: Binding affinity to GABA A receptor (unknown origin)

compound	IC50 / µM
CNC(=O)c1ccc(N2C(=S)N(c3cnc(C#N)c(C(F)(F)F)c3)C(=O)C23CCC3)cc1F [APALUTAMIDE]	3
CNC(=O)c1ccc(N2C(=S)N(c3ccc(C#N)c(C(F)(F)F)c3)C(=O)C2(C)C)cc1F [ENZALUTAMIDE]	3

----------
systemTested: Androgen receptor (Homo sapiens)
assayNotes: Binding affinity to human Androgen receptor

compound	IC50 (nM)
N#Cc1ccc([C@H]2CCCC[C@H]2O)cc1C(F)(F)F	26
CC(c1ccccc1)N(C)c1ccc(C#N)c(C(F)(F)F)n1 (stereo not given)	20
C[C@H]1[C@@H](O)CCN1c1ccc(C#N)c2ccccc12	2.4
Cc1c(N2CC[C@](C)(O)[C@@H]2C)ccc(C#N)c1Cl	1
Cc1c(N2C3CCC2CC(C)(O)C3)ccc(C#N)c1Cl (stereo not given)	1

----------
Known pEC50 of a selection of compounds
systemTested: Androgen receptor (Mus musculus)
Sequence (P19091 whole entry): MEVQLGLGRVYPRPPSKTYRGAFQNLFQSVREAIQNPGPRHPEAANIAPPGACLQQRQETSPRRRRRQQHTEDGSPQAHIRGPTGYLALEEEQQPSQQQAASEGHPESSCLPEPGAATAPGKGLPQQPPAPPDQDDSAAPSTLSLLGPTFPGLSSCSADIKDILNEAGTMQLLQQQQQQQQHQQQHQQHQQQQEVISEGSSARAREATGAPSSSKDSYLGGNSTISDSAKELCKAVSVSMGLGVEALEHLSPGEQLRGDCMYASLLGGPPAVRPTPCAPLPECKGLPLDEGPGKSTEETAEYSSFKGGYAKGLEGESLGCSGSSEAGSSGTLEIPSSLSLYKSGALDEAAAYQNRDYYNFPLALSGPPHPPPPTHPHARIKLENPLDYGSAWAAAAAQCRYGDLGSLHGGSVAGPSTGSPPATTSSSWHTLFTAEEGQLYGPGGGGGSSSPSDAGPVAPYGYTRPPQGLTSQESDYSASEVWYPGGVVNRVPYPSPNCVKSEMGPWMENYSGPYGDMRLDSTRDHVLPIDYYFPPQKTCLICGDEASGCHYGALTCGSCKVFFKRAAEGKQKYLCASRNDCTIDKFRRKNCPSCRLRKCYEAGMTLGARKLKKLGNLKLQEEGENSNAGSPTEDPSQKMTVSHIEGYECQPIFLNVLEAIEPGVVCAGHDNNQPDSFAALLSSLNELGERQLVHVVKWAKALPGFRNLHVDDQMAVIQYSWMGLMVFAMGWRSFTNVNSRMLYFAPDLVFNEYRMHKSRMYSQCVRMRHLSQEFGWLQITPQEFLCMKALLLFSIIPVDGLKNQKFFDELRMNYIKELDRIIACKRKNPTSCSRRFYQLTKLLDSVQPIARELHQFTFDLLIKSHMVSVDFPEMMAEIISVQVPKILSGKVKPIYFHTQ
assayNotes: Agonist activity at Androgen receptor (unknown origin) transfected in mouse C2C12 cells measured by luciferase reporter assay
pEC50: −log10 of the molar value.
readoutKind: pEC50

chemSmiles	readoutKind	observedValue
Cc1c(N2C(=O)[C@@H]3[C@H](O)CCN3C2=O)ccc(C#N)c1Cl	pEC50	8.64
CO[C@@H]1C(c2ccc(C#N)c(Cl)c2C)=NN2CC[C@H](O)[C@@H]12	pEC50	9.30

----------
systemTested: Androgen receptor (Homo sapiens, UniProt P10275, T878A)
Sequence (P10275 whole entry T878A): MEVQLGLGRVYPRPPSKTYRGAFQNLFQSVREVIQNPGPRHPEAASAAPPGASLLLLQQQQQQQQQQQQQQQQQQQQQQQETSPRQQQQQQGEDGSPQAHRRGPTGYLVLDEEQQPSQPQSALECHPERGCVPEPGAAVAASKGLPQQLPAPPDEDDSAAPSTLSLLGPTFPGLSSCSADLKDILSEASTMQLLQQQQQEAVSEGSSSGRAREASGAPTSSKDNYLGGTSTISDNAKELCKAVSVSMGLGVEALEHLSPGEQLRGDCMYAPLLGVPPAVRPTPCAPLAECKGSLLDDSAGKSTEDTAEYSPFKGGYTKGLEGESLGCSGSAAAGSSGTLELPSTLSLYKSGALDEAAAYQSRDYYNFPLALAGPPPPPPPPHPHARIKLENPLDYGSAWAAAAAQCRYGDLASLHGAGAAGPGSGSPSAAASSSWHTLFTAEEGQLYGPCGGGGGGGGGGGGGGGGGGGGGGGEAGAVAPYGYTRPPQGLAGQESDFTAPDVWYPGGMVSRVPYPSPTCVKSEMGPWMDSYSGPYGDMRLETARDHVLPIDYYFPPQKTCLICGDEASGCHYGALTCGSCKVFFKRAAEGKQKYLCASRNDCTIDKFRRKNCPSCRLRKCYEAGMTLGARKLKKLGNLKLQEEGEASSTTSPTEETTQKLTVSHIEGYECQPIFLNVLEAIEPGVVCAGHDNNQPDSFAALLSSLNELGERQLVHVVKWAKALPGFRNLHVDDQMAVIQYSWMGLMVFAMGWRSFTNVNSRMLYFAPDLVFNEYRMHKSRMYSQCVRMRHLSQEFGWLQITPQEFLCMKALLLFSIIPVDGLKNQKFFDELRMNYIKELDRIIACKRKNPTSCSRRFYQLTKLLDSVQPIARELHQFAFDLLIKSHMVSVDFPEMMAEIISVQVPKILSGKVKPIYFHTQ
assayNotes: Binding affinity to bicalutamide-resistant Androgen receptor T878A mutant (unknown origin)
pIC50: −log10 of the molar value.

chemSmiles	pIC50
CNC(=O)c1ccc([C@]2(O)CCN(c3ccc(C#N)c(Cl)c3)[C@H]2C)cn1	5.77

----------
systemTested: Androgen receptor (Homo sapiens)
assayNotes: Antagonist activity at wild-type Androgen receptor (unknown origin) expressed in African green monkey COS-7 cells measured as gene transcription level
Assay type: cell-based
Known IC50 of a selection of compounds

chemSmiles	systemTested	IC50 [nM]
Cc1nn(-c2ccc(C#N)c(Cl)c2)c(C)c1Oc1ccc(C(=O)NC(C)(C)C)cn1	Androgen receptor (Homo sapiens)	1000
Cc1c(C#N)c(-c2ccc(C#N)cc2)c(C)n1-c1cnc(Cl)c(CO)c1	Androgen receptor (Homo sapiens)	25
